# pIC50 per entry
Biological target: native human Bradykinin B1 receptor (Homo sapiens, UniProt P46663)
Construct: which express native human Bradykinin B1 receptor after induction with human IL-10; Coriell Institute
Assay: Calcium flux Assay (FLIPR) with human fibroblasts expressing Bradykinin B1 receptor (hB1 IMR-90)
Settings: IMR-90 human fibroblasts expressing native Bradykinin B1 receptor
pIC50: −log10 of the molar value.

{"columns": ["molecule", "pIC50"],
 "data": [
  ["Cc1ccc(-c2c(F)cc(NC(=O)C3(c4cccc(Cl)c4)CC3)cc2-c2nnn[nH]2)cn1 [Example 245]", 8.11],
  ["Cc1ccc(-c2ccc(NC(=O)C3(c4ccc(C(F)(F)F)cc4F)CC3)cc2-c2nnn[nH]2)cn1 [Example 209]", 8.52],
  ["CCOc1ccc(-c2ccc(NC(=O)C3(c4cccc(C(C)(C)C)c4)CC3)cc2-c2nnn[nH]2)cn1 [Example 97]", 7.00],
  ["CCCOc1ccc(-c2ccc(NC(=O)C3(c4cccc(Cl)c4)CC3)cc2-c2nnn[nH]2)cn1 [Example 110]", 7.96],
  ["O=C(Nc1ccc(-c2ccnc(C(F)(F)F)c2)c(-c2nnn[nH]2)c1)C1(c2ccc(Cl)cc2F)CC1 [Example 175]", 6.16],
  ["O=C(Nc1ccc(-c2ccc(N3CCOCC3)nc2)c(-c2nnn[nH]2)c1)C1(c2cccc(Cl)c2)CC1 [Example 329]", 7.15],
  ["COc1ccc(-c2ccc(NC(=O)C3(c4ccc(Cl)cc4F)CC3)cc2-c2nnn[nH]2)cc1OC [Example 18]", 7.56],
  ["CCOc1ccc(-c2ccc(NC(=O)C3(c4cccc(F)c4)CC3)cc2-c2nnn[nH]2)cn1 [Example 80]", 7.57],
  ["CC(C)(O)Cc1ccc(-c2ccc(NC(=O)C3(c4cccc(Cl)c4)CC3)cc2-c2nnn[nH]2)cn1 [Example 343]", 6.96],
  ["COCc1ccc(-c2ccc(NC(=O)C3(c4ccc(F)cc4F)CC3)cc2-c2nnn[nH]2)cn1 [Example 127]", 7.55],
  ["O=C(Nc1ccc(-c2ccc(C(F)(F)F)nc2)c(-c2nnn[nH]2)c1)C1(c2ccc(F)c(F)c2)CC1 [Example 193]", 7.09],
  ["CCOc1ncc(-c2ccc(NC(=O)C3(c4cccc(Cl)c4)CC3)cc2-c2nnn[nH]2)cc1Cl [Example 328]", 6.90],
  ["COc1ccc(-c2ccc(NC(=O)C3(c4ccc(C)c(F)c4)CC3)cc2-c2nnn[nH]2)cc1OC [Example 12]", 7.41],
  ["CCOc1ccc(-c2ccc(NC(=O)C3(c4cccc(Cl)c4)CC3)cc2-c2nnn[nH]2)cn1 [Example 253]", 7.83],
  ["CCOc1ccc(-c2ccc(NC(=O)C3(c4cccc(F)c4F)CC3)cc2-c2nnn[nH]2)cn1 [Example 79]", 7.61],
  ["CCc1cc(-c2ccc(NC(=O)C3(c4cccc(Cl)c4)CC3)cc2-c2nnn[nH]2)ccn1 [Example 181]", 8.14],
  ["CCOc1ccc(-c2ccc(NC(=O)C3(c4cccc(C(F)(F)F)c4)CC3)cc2-c2nnn[nH]2)cn1 [Example 98]", 8.24],
  ["O=C(Nc1ccc(-c2ccnc(C(F)(F)F)c2)c(-c2nnn[nH]2)c1)C1(c2cccc(Cl)c2)CC1 [Example 171]", 6.55],
  ["COc1ccc(-c2ccc(NC(=O)C3(c4ccc(Cl)c(F)c4)CC3)cc2-c2nnn[nH]2)cc1OC [Example 16]", 6.28],
  ["CN(C)c1ccc(-c2ccc(NC(=O)C3(c4cccc(Cl)c4F)CC3)cc2-c2nnn[nH]2)cn1 [Example 168]", 7.56],
  ["COc1ccc(-c2c(F)cc(NC(=O)C3(c4cccc(Cl)c4)CC3)cc2-c2nnn[nH]2)cc1OC [Example 234]", 7.73],
  ["COc1cc(C(F)(F)F)ccc1C1(C(=O)Nc2ccc(-c3ccc(C(F)(F)F)nc3)c(-c3nnn[nH]3)c2)CC1 [Example 293]", 6.58],
  ["O=C(Nc1ccc(-c2ccc(C(F)(F)F)nc2)c(-c2nnn[nH]2)c1)C1(c2cccc(C(F)(F)F)c2)CC1 [Example 144]", 6.54],
  ["CCOc1ncc(-c2ccc(NC(=O)C3(c4cccc(Cl)c4)CC3)cc2-c2nnn[nH]2)cc1F [Example 163]", 7.54]
]}

----------
Target: human Bradykinin B1 receptor (Homo sapiens)
Construct: host or cells: CHO-K1
Sequence (P46663 1-353): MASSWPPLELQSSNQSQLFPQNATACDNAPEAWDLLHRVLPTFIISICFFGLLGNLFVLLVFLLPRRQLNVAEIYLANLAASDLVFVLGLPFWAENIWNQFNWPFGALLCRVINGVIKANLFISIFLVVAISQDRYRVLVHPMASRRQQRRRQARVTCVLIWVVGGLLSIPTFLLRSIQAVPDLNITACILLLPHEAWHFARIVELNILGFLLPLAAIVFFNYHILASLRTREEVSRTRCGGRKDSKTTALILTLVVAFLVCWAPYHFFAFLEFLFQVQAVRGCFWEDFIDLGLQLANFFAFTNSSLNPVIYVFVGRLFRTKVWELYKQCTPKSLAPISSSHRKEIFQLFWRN
Test: Calcium flux Assay (FLIPR) with recombinant CHO-K1 cells expressing human Bradykinin B1 receptor, in presence (hB1 IC50) or absence (hB1 free IC50) of 0.1% BSA
Format: cell-based
Conditions: in absence of 0.1% BSA, read-out: hB1 free IC50
pIC50: −log10 of the molar value.
Listing of entries alongside the reported pIC50.

{"columns": ["structure.string", "pIC50"],
 "data": [
  ["O=C(Nc1ccc(-c2ccc(C(F)(F)F)nc2)c(-c2nnn[nH]2)c1)C1(c2cccc(Cl)c2F)CC1", 7.29],
  ["CCOc1ccc(-c2ccc(NC(=O)C3(c4ccc(F)c(F)c4)CC3)cc2-c2nnn[nH]2)cn1", 7.54],
  ["O=C(Nc1ccc(-c2cncc(F)c2)c(-c2nnn[nH]2)c1)C1(c2cccc(Cl)c2)CC1", 6.53],
  ["O=C(Nc1ccc(-c2ccnc(C(F)(F)F)c2)c(-c2nnn[nH]2)c1)C1(c2cccc(Cl)c2F)CC1", 6.36],
  ["O=C(Nc1ccc(-n2cnc(C(F)(F)F)n2)c(-c2nnn[nH]2)c1)C1(c2ccc(C(F)(F)F)cc2F)CC1", 6.30],
  ["CN(C)c1ccc(-c2ccc(NC(=O)C3(c4cccc(Cl)c4F)CC3)cc2-c2nnn[nH]2)cn1", 7.23],
  ["CCc1cc(-c2ccc(NC(=O)C3(c4cccc(Cl)c4)CC3)cc2-c2nnn[nH]2)ccn1", 7.68],
  ["CC(C)Oc1ccc(-c2ccc(NC(=O)C3(c4cccc(Cl)c4)CC3)cc2-c2nnn[nH]2)cn1", 8.71],
  ["COc1cc(-c2ccc(NC(=O)C3(c4cccc(Cl)c4)CC3)cc2-c2nnn[nH]2)cc(C(F)(F)F)n1", 5.80],
  ["CCc1cnn(-c2ccc(NC(=O)C3(c4ccc(C(F)(F)F)cc4F)CC3)cc2-c2nnn[nH]2)c1", 7.92],
  ["O=C(Nc1ccc(-c2cc(F)ncc2F)c(-c2nnn[nH]2)c1)C1(c2ccc(C(F)(F)F)cc2F)CC1", 6.20],
  ["CC(C)(O)c1ccc(-c2ccc(NC(=O)C3(c4cccc(Cl)c4)CC3)cc2-c2nnn[nH]2)cn1", 6.58]
]}

----------
Target: human Bradykinin B1 receptor (Homo sapiens)
Construct: host or cells: CHO-K1
Assay: Calcium flux Assay (FLIPR) with recombinant CHO-K1 cells expressing human Bradykinin B1 receptor, in presence (hB1 IC50) or absence (hB1 free IC50) of 0.1% BSA
Assay type: cell-based
Details: in presence of 0.1% BSA, read-out: hB1 IC50
readout.name: IC50 (nM)

{"columns": ["structure.string", "tested.on", "uom", "endpoint.value"],
 "data": [
  ["COc1ccc(-c2cc(F)c(NC(=O)C3(c4cc(Cl)ccc4F)CC3)cc2-c2nnn[nH]2)cc1", "human Bradykinin B1 receptor (Homo sapiens)", "nM", 1280],
  ["CCOc1ncc(-c2ccc(NC(=O)C3(c4cccc(Cl)c4)CC3)cc2-c2nnn[nH]2)cc1Cl", "human Bradykinin B1 receptor (Homo sapiens)", "nM", 77.9],
  ["CS(=O)(=O)Nc1ccc(-c2ccc(NC(=O)C3(c4cccc(Cl)c4)CC3)cc2-c2nnn[nH]2)cc1", "human Bradykinin B1 receptor (Homo sapiens)", "nM", 206],
  ["COc1ccc(-c2ccc(NC(=O)C3(c4cccc(Cl)c4)CC3)cc2-c2nnn[nH]2)cc1F", "human Bradykinin B1 receptor (Homo sapiens)", "nM", 235]
]}

----------
Target: native human Bradykinin B1 receptor (Homo sapiens)
Construct: which express native human Bradykinin B1 receptor after induction with human IL-10; Coriell Institute
Sequence (P46663 1-353): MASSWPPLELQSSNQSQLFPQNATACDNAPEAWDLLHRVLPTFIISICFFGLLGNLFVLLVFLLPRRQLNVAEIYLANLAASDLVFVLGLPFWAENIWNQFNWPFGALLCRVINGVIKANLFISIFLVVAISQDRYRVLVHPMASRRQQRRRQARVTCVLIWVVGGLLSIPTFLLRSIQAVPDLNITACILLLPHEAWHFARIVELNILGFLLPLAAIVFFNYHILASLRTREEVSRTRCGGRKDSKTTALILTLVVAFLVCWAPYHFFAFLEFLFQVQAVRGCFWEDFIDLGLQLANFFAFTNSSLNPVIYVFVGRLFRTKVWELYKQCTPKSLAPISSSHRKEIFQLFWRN
Test: Calcium flux Assay (FLIPR) with human fibroblasts expressing Bradykinin B1 receptor (hB1 IMR-90)
Details: IMR-90 human fibroblasts expressing native Bradykinin B1 receptor
readout.name: IC50 (µM)

{"columns": ["structure.string", "endpoint.value"],
 "data": [
  ["O=C(Nc1cc(-c2nnn[nH]2)c(-c2ccc(C(F)(F)F)nc2)cc1O)C1(c2ccc(Cl)c(F)c2)CC1", 0.108],
  ["CCCc1cccc(C2(C(=O)Nc3ccc(-c4ccc(OCC)nc4)c(-c4nnn[nH]4)c3)CC2)c1", 0.0153],
  ["CCOc1ccc(-c2ccc(NC(=O)C3(c4ccc(F)cc4)CC3)cc2-c2nnn[nH]2)cn1", 0.0212],
  ["CCOc1ccc(-c2ccc(NC(=O)C3(c4ccc(OC)c(F)c4)CC3)cc2-c2nnn[nH]2)cn1", 0.0274],
  ["O=C(Nc1cc(F)c(-c2ccc(C(F)(F)F)nc2)c(-c2nnn[nH]2)c1)C1(c2cccc(Cl)c2)CC1", 0.127],
  ["CCOc1ccc(-c2ccc(NC(=O)C3(c4cccc(Cl)c4)CC3)cc2-c2nnn[nH]2)cc1OC", 0.0131],
  ["O=C(Nc1cc(-c2nnn[nH]2)c(-c2ccc(C(F)(F)F)nc2)cc1O)C1(c2ccc(F)c(Cl)c2)CC1", 0.0231],
  ["CCOc1ccc(-c2c(F)cc(NC(=O)C3(c4ccc(C(F)(F)F)cc4F)CC3)cc2-c2nnn[nH]2)cn1", 0.00283],
  ["COc1ccc(-c2c(F)cc(NC(=O)C3(c4ccc(C(F)(F)F)cc4)CC3)cc2-c2nnn[nH]2)cc1OC", 0.0068],
  ["CC(F)(F)c1ccc(-c2ccc(NC(=O)C3(c4ccc(F)c(F)c4)CC3)cc2-c2nnn[nH]2)cn1", 0.0163],
  ["Cn1ncc2ccc(-c3ccc(NC(=O)C4(c5ccc(C(F)(F)F)cc5F)CC4)cc3-c3nnn[nH]3)cc21", 0.00848],
  ["Cc1ccc(C2(C(=O)Nc3ccc(-c4ccc(C(F)(F)F)nc4)c(-c4nnn[nH]4)c3)CC2)c(F)c1", 0.00236],
  ["CCCOc1ccc(-c2ccc(NC(=O)C3(c4ccc(C(F)(F)F)cc4)CC3)cc2-c2nnn[nH]2)cn1", 0.0106],
  ["Cc1cc(-c2ccc(NC(=O)C3(c4ccc(C(F)(F)F)cc4F)CC3)cc2-c2nnn[nH]2)ccn1", 0.00392],
  ["O=C(Nc1ccc(-c2ccc(C(F)F)nc2)c(-c2nnn[nH]2)c1)C1(c2cccc(Cl)c2)CC1", 0.0149]
]}

Cited source for all entries: patent US20210317092A1
